The origin of these recorded values is patent US20260015350A1.

Please provide measured IC50 for the entries that follow.
- MEASURED ON: KRas^G12V (Homo sapiens, UniProt P01116, G12V)
- Construct: Biotinylated KRas (corresponding to amino acids 1-169, produced at Accelegan Inc.); biotin (biotinylated); purchased Accelegan Inc
- Sequence (P01116 1-169 isoform P01116-2 G12V): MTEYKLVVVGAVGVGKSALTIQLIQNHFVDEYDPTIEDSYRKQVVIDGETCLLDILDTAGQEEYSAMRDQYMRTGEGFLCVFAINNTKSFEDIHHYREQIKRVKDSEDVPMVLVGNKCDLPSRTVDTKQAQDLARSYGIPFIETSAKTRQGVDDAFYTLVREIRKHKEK
- PROCEDURE TEXT: KRas binding assay (TR-FRET tracer displacement), KRas G12V

IC50 for CCc1c(F)ccc2cc(O)cc(-c3ncc4c(N5CC6CCC(C5)C6C#N)nc(OC[C@@]56CCCN5C[C@H](F)C6)nc4c3F)c12 (single isomer, unassigned) [Example 561] is < 2 nM

IC50 for C[C@@H]1C[C@@H]1c1c(Cl)cc(O)cc1-c1ncc2c(N3CCCC4(CNS(=O)(=O)N4)C3)nc(OC[C@@]34CCCN3C[C@H](F)C4)nc2c1F (stereo in doubt) is < 2 nM

IC50 for CCc1c(F)ccc2cc(O)cc(-c3ncc4c(N5CCCC6(CNS(=O)(=O)N6)C5)nc(OC[C@]56CCCN5[C@H](COC(=O)N(C)C)CC6)nc4c3F)c12 (stereo partly drawn) is < 2 nM

###

Please provide measured IC50 for the entries that follow.
- MEASURED ON: KRas^G12D (Homo sapiens, UniProt P01116, G12D)
- Construct: Biotinylated KRas (corresponding to amino acids 1-169, produced at Accelegan Inc.); biotin (biotinylated); purchased Accelegan Inc
- Sequence (P01116 1-169 isoform P01116-2 G12D): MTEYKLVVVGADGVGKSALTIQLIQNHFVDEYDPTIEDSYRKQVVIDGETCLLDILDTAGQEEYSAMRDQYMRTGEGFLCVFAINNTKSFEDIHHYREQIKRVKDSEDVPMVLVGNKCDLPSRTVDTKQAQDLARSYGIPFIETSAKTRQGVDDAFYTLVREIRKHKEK
- PROCEDURE TEXT: KRas binding assay (TR-FRET tracer displacement), KRas G12D

The compound CCc1c(F)ccc2cc(O)cc(-c3ncc4c(N5CCC[C@@](C)(O)C5)nc(OC[C@]56CCCN5CC(=C(F)F)C6)nc4c3F)c12 (single isomer, unassigned) [Example 919] , tested on KRas^G12D (Homo sapiens, UniProt P01116, G12D), showed IC50 of < 2 nM

The compound CCc1c(F)ccc2cc(O)cc(-c3ncc4c(N5CCC[C@@](C)(O)C5)nc(OC[C@@]56CCCN5[C@H](COC(=O)N5CCCC5)CC6)nc4c3F)c12 [Example 719] , tested on KRas^G12D (Homo sapiens, UniProt P01116, G12D), showed IC50 of < 2 nM

The compound Oc1cc(Cl)c(C2CC2)c(-c2ncc3c(N4CCC[C@]5(C4)C[C@H](O)C5)nc(OCC45CCCN4CCC5)nc3c2F)c1 [Example 742] , tested on KRas^G12D (Homo sapiens, UniProt P01116, G12D), showed IC50 of < 2 nM

###

- MEASURED ON: KRas^G12C (Homo sapiens, UniProt P01116, G12C)
- Construct: Biotinylated KRas (corresponding to amino acids 1-169, produced at Accelegan Inc.); biotin (biotinylated); purchased Accelegan Inc
- Sequence (P01116 1-169 isoform P01116-2 G12C): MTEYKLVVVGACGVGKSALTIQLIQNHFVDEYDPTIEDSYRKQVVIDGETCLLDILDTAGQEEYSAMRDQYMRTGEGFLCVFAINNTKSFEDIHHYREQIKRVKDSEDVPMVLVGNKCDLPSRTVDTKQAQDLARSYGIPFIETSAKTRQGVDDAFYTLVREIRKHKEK
- PROCEDURE TEXT: KRas binding assay (TR-FRET tracer displacement), KRas G12C
- CONDITIONS USED: TR-FRET tracer displacement, KRas G12C
Please provide measured IC50 for the entries that follow.

IC50 for CCc1cccc2cc3[nH]ncc3c(-c3ncc4c(N5CCCC6(C5)NC(=O)NC6=O)nc(OC[C@@]56CCCN5C[C@H](F)C6)nc4c3F)c12 (stereo partly drawn) is < 2 nM

IC50 for CCc1c(F)ccc2cc(O)cc(-c3ncc4c(N5CCC[C@]6(C5)NC(=O)NC6=O)nc(OCC56CCCN5C/C(=C\F)C6)nc4c3F)c12 (stereo partly drawn) is < 2 nM

IC50 for CCc1c(F)ccc2cc(O)cc(-c3ncc4c(N5CCCn6nc(C(=O)N(C)C)cc6C5)nc(OCC56CCCN5C/C(=C\F)C6)nc4c3F)c12 (stereo not drawn) is < 2 nM
